Entries and their measured MIC follow.
- Tested on: MDR-E. coli (LZ-7)
- Type: cell-based, Escherichia coli
- STATED CONDITIONS: MDR- (LZ-7)
No end group written: not given here.
RESULT TYPE: MIC

FLKLRLWGKLLWKLK-NH2 [GK] = 16 µM
FLKLRLWRKLLWKLK-NH2 [RK] = 2 µM
FLKLRLWKRLLWKLK-NH2 [KR] = 1 µM
FLKLRLWGRLLWKLK-NH2 [GR] = 16 µM
FLKLRLWRRLLWKLK-NH2 [RR] = 2 µM
FLKLRLWKKLLWKLK-NH2 [KK] = 2 µM
FLALALIQEAIAKLK-NH2 [FA, Kassporin-KS1, reference compound] = >32 µM
